Consider the following binders; for each one, report its DGI-2/LDH.
Molecular target: T1, DGI-2 polypeptide (UniProt Q15004 1-111, limits assumed)
T1 construct: Soluble recombinant protein coated at 500 ng/well; vector tag of pIVEX2.3-MCS not described for this construct; also called KIAA0101
T1 sequence (looked up): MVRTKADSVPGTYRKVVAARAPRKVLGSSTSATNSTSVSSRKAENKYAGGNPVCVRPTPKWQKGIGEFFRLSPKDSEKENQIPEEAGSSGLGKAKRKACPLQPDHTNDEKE
Assay: phage ELISA
Give bare numbers, in ratio.

Can you give me DGI-2/LDH for all of these, one by one?
1. VSFAHDWGRWWYQWEVGAAAGAPVPYPDPLEPRP [DGI-2-20R-4-G22]
2. SRELGKWGRLWQDWSSGNFSAAAGAPVPYPDPLEPRP [DGI-2-20R-3-C11]
3. RDTTSQWSWISRGWEFPGWRAAAGAPVPYPDPLEPRP [DGI-2-20R-3-C2]
4. VVHTRAWGSWAYGFVLRNRGAAAGAPVPYPDPLEPRP [DGI-2-20F-PP-F10]
5. LLLPVRWRDAQPRSLLMEWIAAAGAPVPYPDPLEPRP [DGI-2-20F-PP-F8]

1. 6.5
2. 8.3
3. 5.8
4. 2.8
5. 1.9

Origin of measurements: patent US7056679
